B1: FCHO1 (parent)
chain: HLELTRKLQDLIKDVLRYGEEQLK

Variants of: B1
Test: protein stability index of a GFP-peptide fusion (GPS, HEK-293T) (PSI 1-6); higher = more stable;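 further: lentivirally expressed fusions sorted by FACS into six bins by GFP to DsRed ratio, PSI derived from sequencing read proportions per bin multiplied by bin number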
Conditions: c terminus: a fixed tail appended
value-type: protein stability index
Just the number, please, no unit attached.

- variant-label: "V15N"
  endpoint-result: 2.98

// query Name the reported protein stability index value associated with the variant L2R
// result 2.11

// query // next record L11I
// result 3.17

// query // next record I12P
// result 3.65

// query // next record D14M
// result 1.3

// query // next record R17L
// result 2.88
